- assay overview: Liver microsomes metabolic stability assay, rat
- Type: in vitro ADME
- applied conditions: male, rat liver microsomes 0.5 mg/mL, 37° C., read-out: t1/2 Rat

compound: OC1(c2nnc(-c3cnn4ccc(N5CCC[C@@H]5c5cc(F)ccc5F)nc34)[nH]2)CCC1
unit string: min
half-life at 2 μM: 27.7
--
compound: Fc1ccc(F)c([C@H]2CCCN2c2ccn3ncc(-c4nc5cc(Cl)c(OC(F)(F)F)cc5[nH]4)c3n2)c1
unit string: min
half-life at 2 μM: 136
--
compound: C[C@@H](CO)c1nnc(-c2cnn3ccc(N4CCC[C@@H]4c4cc(F)ccc4F)nc23)[nH]1
unit string: min
half-life at 2 μM: 17.3
--
compound: CC(C)(O)Cc1nnc(-c2cnn3ccc(N4CCC[C@@H]4c4cc(F)ccc4F)nc23)[nH]1
unit string: min
half-life at 2 μM: 19.9
--
compound: Fc1ccc(F)c([C@H]2CCCN2c2ccn3ncc(-c4nnc(-c5ccc(N6CCNCC6)cc5)[nH]4)c3n2)c1
unit string: min
half-life at 2 μM: 301
--
compound: Fc1ccc(F)c([C@H]2CCCN2c2ccn3ncc(-c4nc5ccc(OC(F)(F)F)cc5o4)c3n2)c1
unit string: min
half-life at 2 μM: 198
--
compound: COCCOc1cc2nc(-c3cnn4ccc(N5CCC[C@@H]5c5cc(F)ccc5F)nc34)[nH]c2cc1OCCOC
unit string: min
half-life at 2 μM: 13.2
--
compound: N#Cc1cc2[nH]c(-c3cnn4ccc(N5CCC[C@@H]5c5cc(F)ccc5F)nc34)nc2cc1F
unit string: min
half-life at 2 μM: 22.8
--
compound: COc1cc2[nH]c(-c3cnn4ccc(N5CCC[C@@H]5c5cc(F)ccc5F)nc34)nc2cc1Cl
unit string: min
half-life at 2 μM: 40.8
--
compound: OC1CC(c2nnc(-c3cnn4ccc(N5CCC[C@@H]5c5cc(F)ccc5F)nc34)[nH]2)C1 (stereo partly drawn)
unit string: min
half-life at 2 μM: 20.1
--
compound: COc1cc2nc(-c3cnn4ccc(N5CCC[C@@H]5c5cc(F)ccc5F)nc34)[nH]c2cc1C(=O)O
unit string: min
half-life at 2 μM: 990
--
compound: Fc1ccc(F)c([C@H]2CCCN2c2ccn3ncc(-c4nc5cnncc5[nH]4)c3n2)c1
unit string: min
half-life at 2 μM: 62.4
--
compound: CS(=O)(=O)c1cc2nc(-c3cnn4ccc(N5CCC[C@@H]5c5cc(F)ccc5F)nc34)[nH]c2cc1C(N)=O
unit string: min
half-life at 2 μM: 30.7
--
compound: CSc1cc2nc(-c3cnn4ccc(N5CCC[C@@H]5c5cc(F)ccc5F)nc34)[nH]c2cc1C#N
unit string: min
half-life at 2 μM: 66
--
compound: CC(C)(O)c1nnc(-c2cnn3ccc(N4CCC[C@@H]4c4cc(F)ccc4F)nc23)[nH]1
unit string: min
half-life at 2 μM: 54.9
